Test system: 616215-338-R-J1-PDC complex spheroids, viability % test/control
ASSAY_REMARKS: Anticancer human tumor 616215-338-R-J1-PDC patient-derived colon adenocarcinoma cell line growth inhibition [CLK]
TEST_PARAMETERS: second compound 0.1 µM; first compound 0.1 µM; active compounds read low
PARAMETER: viability, T/C (%)
# number only, unit % dropped from output

Examples with answers:
O=c1[nH]cc(F)c(=O)[nH]1 + CNC(=O)c1ccc(Nc2nc(OC3CCCC3)c3c(-c4ccc5nc(C)oc5c4)c[nH]c3n2)c(OC)c1	45.9
CCc1c2c(nc3ccc(O)cc13)-c1cc3c(c(=O)n1C2)COC(=O)[C@]3(O)CC + CN1CCN(c2cc(C(=O)Nc3cc4cc(-c5cnn(C)c5)ccc4cn3)ccn2)CC1	13.1
Cn1ncnc1[C@H]1c2n[nH]c(=O)c3cc(F)cc(c23)N[C@@H]1c1ccc(F)cc1 + CN1CCN(c2cc(C(=O)Nc3cc4cc(-c5cnn(C)c5)ccc4cn3)ccn2)CC1	69.5

[in] What reported viability, T/C corresponds to COC1C=CCC(C)C(C)S(=O)(=O)NC(=O)c2ccc3c(c2)N(CC2CCC21)CC1(CCCc2cc(Cl)ccc21)CO3 (stereo not given) + CN1CCN(c2cc(C(=O)Nc3cc4cc(-c5cnn(C)c5)ccc4cn3)ccn2)CC1 on 616215-338-R-J1-PDC complex spheroids, viability % test/control?
[out] 44.4

[in] What reported viability, T/C corresponds to CC(=O)O[C@H]1C(=O)[C@@]2(C)[C@H]([C@H](OC(=O)c3ccccc3)[C@]3(O)C[C@H](OC(=O)[C@H](O)[C@@H](NC(=O)c4ccccc4)c4ccccc4)C(C)=C1C3(C)C)[C@]1(OC(C)=O)CO[C@@H]1C[C@@H]2O + CNC(=O)c1ccc(Nc2nc(OC3CCCC3)c3c(-c4ccc5nc(C)oc5c4)c[nH]c3n2)c(OC)c1 on 616215-338-R-J1-PDC complex spheroids, viability % test/control?
[out] 37.7

###

Tested on: 616215-338-R-J1-PDC complex spheroids, viability % test/control
ASSAY_REMARKS: Anticancer human tumor 616215-338-R-J1-PDC cell line growth inhibition [CLK]; active = viability on the fitted dose curve at most 10% of control; inactive = the rest;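 note: spheroids exposed to agents for 7 days; 100% = DMSO vehicle wells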
TEST_PARAMETERS: second compound 0.316 µM; first compound 0.316 µM
Can you answer with just one of these options? class 1 for active, class 0 for inactive

# count of solved cases: 5
Nc1ccn(C2OC(CO)C(O)C2(F)F)c(=O)n1 (centres undefined) + CN1CCN(c2cc(C(=O)Nc3cc4cc(-c5cnn(C)c5)ccc4cn3)ccn2)CC1	class 0
CC(Nc1ccc2c(c1)OCCn1cc(N3C(=O)OCC3C(F)F)nc1-2)C(N)=O (centres undefined) + CNC(=O)c1ccc(Nc2nc(OC3CCCC3)c3c(-c4ccc5nc(C)oc5c4)c[nH]c3n2)c(OC)c1	class 0
C=C(F)C(=O)N1CCN(c2nc(OCC3CCCN3C)nc3c2CCN(c2cccc4cccc(Cl)c24)C3)CC1CC#N (centres undefined) + CNC(=O)c1ccc(Nc2nc(OC3CCCC3)c3c(-c4ccc5nc(C)oc5c4)c[nH]c3n2)c(OC)c1	class 0
COc1c(OCCCN2CCOCC2)ccc2c3n(c(=NC(=O)c4cnc(N)nc4)nc12)CCN3 + CNC(=O)c1ccc(Nc2nc(OC3CCCC3)c3c(-c4ccc5nc(C)oc5c4)c[nH]c3n2)c(OC)c1	class 0
COc1cccc2c1C(=O)c1c(O)c3c(c(O)c1C2=O)CC(O)(C(=O)CO)CC3OC1CC(N)C(O)C(C)O1 (centres undefined) + CN1CCN(c2cc(C(=O)Nc3cc4cc(-c5cnn(C)c5)ccc4cn3)ccn2)CC1	class 0

[in] # fetch the recorded call for CC1COCCN1c1cc(C2(S(C)(=N)=O)CC2)nc(-c2ccnc3[nH]ccc23)n1 (centres undefined) + CN1CCN(c2cc(C(=O)Nc3cc4cc(-c5cnn(C)c5)ccc4cn3)ccn2)CC1 here
[out] class 0

[in] # fetch the recorded call for COC1C=CCC(C)C(C)S(=O)(=O)NC(=O)c2ccc3c(c2)N(CC2CCC21)CC1(CCCc2cc(Cl)ccc21)CO3 (centres undefined) + CN1CCN(c2cc(C(=O)Nc3cc4cc(-c5cnn(C)c5)ccc4cn3)ccn2)CC1 here
[out] class 0

[in] # fetch the recorded call for CCCS(=O)(=O)Nc1ccc(F)c(C(=O)c2c[nH]c3ncc(-c4ccc(Cl)cc4)cc23)c1F + CNC(=O)c1ccc(Nc2nc(OC3CCCC3)c3c(-c4ccc5nc(C)oc5c4)c[nH]c3n2)c(OC)c1 here
[out] class 0

[in] # fetch the recorded call for CC1(C)CCC(CN2CCN(c3ccc(C(=O)NS(=O)(=O)c4ccc(NCC5CCOCC5)c([N+](=O)[O-])c4)c(Oc4cnc5[nH]ccc5c4)c3)CC2)=C(c2ccc(Cl)cc2)C1 + CNC(=O)c1ccc(Nc2nc(OC3CCCC3)c3c(-c4ccc5nc(C)oc5c4)c[nH]c3n2)c(OC)c1 here
[out] class 0

[in] # fetch the recorded call for C#Cc1c(F)ccc2cc(O)cc(-c3ncc4c(N5CC6CCC(C5)N6)nc(OCC56CCCN5CC(F)C6)nc4c3F)c12 (centres undefined) + CN1CCN(c2cc(C(=O)Nc3cc4cc(-c5cnn(C)c5)ccc4cn3)ccn2)CC1 here
[out] class 0

[in] # fetch the recorded call for CCc1c2c(nc3ccc(O)cc13)-c1cc3c(c(=O)n1C2)COC(=O)[C@]3(O)CC + CN1CCN(c2cc(C(=O)Nc3cc4cc(-c5cnn(C)c5)ccc4cn3)ccn2)CC1 here
[out] class 1

[in] # fetch the recorded call for CCc1c2c(nc3ccc(O)cc13)-c1cc3c(c(=O)n1C2)COC(=O)[C@]3(O)CC + CNC(=O)c1ccc(Nc2nc(OC3CCCC3)c3c(-c4ccc5nc(C)oc5c4)c[nH]c3n2)c(OC)c1 here
[out] class 0

[in] # fetch the recorded call for C#Cc1c(F)ccc2cc(O)cc(-c3ncc4c(N5CC6CCC(C5)N6)nc(OCC56CCCN5CC(F)C6)nc4c3F)c12 (centres undefined) + CNC(=O)c1ccc(Nc2nc(OC3CCCC3)c3c(-c4ccc5nc(C)oc5c4)c[nH]c3n2)c(OC)c1 here
[out] class 0

[in] # fetch the recorded call for CC(CO)NC(=O)c1cc(-c2ccc(Cl)cc2)nn(-c2cnn(C)c2)c1=O (centres undefined) + CNC(=O)c1ccc(Nc2nc(OC3CCCC3)c3c(-c4ccc5nc(C)oc5c4)c[nH]c3n2)c(OC)c1 here
[out] class 0

[in] # fetch the recorded call for CC(CO)NC(=O)c1cc(-c2ccc(Cl)cc2)nn(-c2cnn(C)c2)c1=O (centres undefined) + CN1CCN(c2cc(C(=O)Nc3cc4cc(-c5cnn(C)c5)ccc4cn3)ccn2)CC1 here
[out] class 0

[in] # fetch the recorded call for CC(=O)O[C@H]1C(=O)[C@@]2(C)[C@H]([C@H](OC(=O)c3ccccc3)[C@]3(O)C[C@H](OC(=O)[C@H](O)[C@@H](NC(=O)c4ccccc4)c4ccccc4)C(C)=C1C3(C)C)[C@]1(OC(C)=O)CO[C@@H]1C[C@@H]2O + CN1CCN(c2cc(C(=O)Nc3cc4cc(-c5cnn(C)c5)ccc4cn3)ccn2)CC1 here
[out] class 0

[in] # fetch the recorded call for O=C(c1cc(Cc2n[nH]c(=O)c3ccccc23)ccc1F)N1CCN(C(=O)C2CC2)CC1 + CN1CCN(c2cc(C(=O)Nc3cc4cc(-c5cnn(C)c5)ccc4cn3)ccn2)CC1 here
[out] class 0

[in] # fetch the recorded call for COc1ccc([C@@H](O)c2cc(-c3ncnc4cc(N5CCOCC5)ccc34)c(F)cc2Cl)nn1 + CN1CCN(c2cc(C(=O)Nc3cc4cc(-c5cnn(C)c5)ccc4cn3)ccn2)CC1 here
[out] class 0

[in] # fetch the recorded call for CC(=O)O[C@H]1C(=O)[C@@]2(C)[C@H]([C@H](OC(=O)c3ccccc3)[C@]3(O)C[C@H](OC(=O)[C@H](O)[C@@H](NC(=O)c4ccccc4)c4ccccc4)C(C)=C1C3(C)C)[C@]1(OC(C)=O)CO[C@@H]1C[C@@H]2O + CNC(=O)c1ccc(Nc2nc(OC3CCCC3)c3c(-c4ccc5nc(C)oc5c4)c[nH]c3n2)c(OC)c1 here
[out] class 0
